molecular target: BTK phosphorylation at tyrosine 223 (Homo sapiens (Human)); assay: Immunoblot analysis of phospho-BTK(Y223) in Ramos cells; details: 1 hr treatment, anti-IgM stimulation, western blot
Sequence (Q06187 whole entry): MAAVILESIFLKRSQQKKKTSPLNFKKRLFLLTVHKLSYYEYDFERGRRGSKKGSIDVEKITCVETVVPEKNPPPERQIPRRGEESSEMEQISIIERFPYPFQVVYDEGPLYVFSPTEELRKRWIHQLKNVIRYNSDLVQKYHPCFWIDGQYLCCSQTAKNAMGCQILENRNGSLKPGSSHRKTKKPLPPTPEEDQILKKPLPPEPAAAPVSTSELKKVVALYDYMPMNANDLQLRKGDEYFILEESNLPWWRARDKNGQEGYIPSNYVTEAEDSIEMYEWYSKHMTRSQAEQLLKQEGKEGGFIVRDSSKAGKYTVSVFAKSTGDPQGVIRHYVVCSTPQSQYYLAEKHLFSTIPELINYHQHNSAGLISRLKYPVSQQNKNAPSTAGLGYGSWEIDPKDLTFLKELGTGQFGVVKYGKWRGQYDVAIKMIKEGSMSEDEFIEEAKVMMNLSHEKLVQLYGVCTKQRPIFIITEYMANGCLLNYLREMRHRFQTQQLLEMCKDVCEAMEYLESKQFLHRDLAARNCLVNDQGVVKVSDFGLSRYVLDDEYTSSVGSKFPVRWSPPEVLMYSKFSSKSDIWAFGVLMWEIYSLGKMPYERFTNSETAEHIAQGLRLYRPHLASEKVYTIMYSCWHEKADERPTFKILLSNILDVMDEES
pEC50: −log10 of the molar value.
# Lookup of reported pEC50 keyed by entry

C=CC(=O)Nc1cccc(Nc2nc(Nc3ccc4c(c3)OCCOCCOCCO4)ncc2F)c1; > 7.00
C=CC(=O)Nc1cccc(Nc2nc(Nc3ccc4c(c3)OCCOCCOCCO4)nc3[nH]cnc23)c1; > 7.00

Record C=CC(=O)N1CCC[C@@H](Nc2nc(Nc3ccc4c(c3)OCCOCCOCCO4)nc3[nH]cnc23)C1 , field pEC50: > 7.00
